Target: MC1-R (Mus musculus, UniProt Q01727)
Construct: membranes prepared from hMC3-R, hMC4-R, hMC5-R, and B-16 mouse melanoma cells (containing MC1-R); endogenous in cells; host or cells: B-16 mouse melanoma cells (membranes)
Sequence (Q01727 whole entry): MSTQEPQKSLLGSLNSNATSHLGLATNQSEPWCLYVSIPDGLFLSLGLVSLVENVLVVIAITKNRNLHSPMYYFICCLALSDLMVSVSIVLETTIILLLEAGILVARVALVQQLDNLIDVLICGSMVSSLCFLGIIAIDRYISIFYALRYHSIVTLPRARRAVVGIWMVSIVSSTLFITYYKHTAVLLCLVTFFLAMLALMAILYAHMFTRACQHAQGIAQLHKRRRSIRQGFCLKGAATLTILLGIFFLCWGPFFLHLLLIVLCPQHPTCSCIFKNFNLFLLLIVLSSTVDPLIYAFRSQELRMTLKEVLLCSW
Test: competitive inhibition binding assay, 125I-NDP-alpha-MSH, B-16 mouse melanoma cell membranes
Conditions: 1 μM test peptide; 0.4 nM 125I-NDP-alpha-MSH; B-16 mouse melanoma cell membranes
Protocol: The competitive inhibition binding assay was conducted using membranes prepared from hMC3-R, hMC4-R, hMC5-R, and B-16 mouse melanoma cells (containing MC1-R) using 0.4 nM ^125I-NDP-alpha-MSH (New England Nuclear, Boston, Mass., USA) in 50 mM HEPES buffer containing 1 mM MgCl2, 2 mM CaCl2, and 5 mM KCl, at pH 7.2. […] The filter was dried and counted in a gamma counter for remaining radioactivity bound to the membranes. […]
Square brackets hold non-standard residues; d marks the D form. Ends that are not written are not given here. Nle = CCCC[C@H](N)C(=O)O
property: % Inhibition at 1 μM at Melanocortin Receptor 1 (%)
Answer format: numeric, % implied, no suffix.

Consider the reported % Inhibition at 1 μM at Melanocortin Receptor 1 for these substances:
**Query** Give % Inhibition at 1 μM at Melanocortin Receptor 1 for Ac-Ser-Tyr-Ser-Nle-Glu-His-Cys-Phe-Arg-Trp-Gly-Lys-Pro-Val-NH2 (Ac-SYS[Nle]EHCFRWGKPV-NH2; not fully specified (bridges); printed as Ac-Ser-Tyr-Ser-Nle-Glu-His-Cys-Phe-Arg-Trp-Gly-Lys-Pro-Val-NH2; numbers in words are those of the source; also: oxorhenium(V) N3S1 chelate (Re(V)=O)) [1-8] tested on MC1-R (Mus musculus, UniProt Q01727).
**Result** 42

**Query** State the measured % Inhibition at 1 μM at Melanocortin Receptor 1 (MC1-R (Mus musculus, UniProt Q01727)) of Tyr-Val-Nle-Gly-Cys-D-Phe-Arg-Trp-Asp-Arg-Phe-NH2 (YV[Nle]GC[dF]RWDRF-NH2; not fully specified (bridges); printed as Tyr-Val-Nle-Gly-Cys-D-Phe-Arg-Trp-Asp-Arg-Phe-NH2; numbers in words are those of the source; also: oxorhenium(V) N3S1 chelate complex (Re=O)) [5-7]
**Result** 89

**Query** State % Inhibition at 1 μM at Melanocortin Receptor 1 (MC1-R (Mus musculus, UniProt Q01727)) of Ac-Ser-Tyr-Ser-Nle-Cys-Glu-His-Phe-Arg-Trp-Gly-Lys-Pro-Val-NH2 (Ac-SYS[Nle]CEHFRWGKPV-NH2; not fully specified (bridges); printed as Ac-Ser-Tyr-Ser-Nle-Cys-Glu-His-Phe-Arg-Trp-Gly-Lys-Pro-Val-NH2; numbers in words are those of the source; also: oxorhenium(V) N3S1 chelate (Re(V)=O)) [1-10] .
**Result** 72

**Query** System MC1-R (Mus musculus, UniProt Q01727). Read-out % Inhibition at 1 μM at Melanocortin Receptor 1. Item Tyr-Val-Cys-Nle-Gly-His-D-Phe-Arg-Trp-Asp-Arg-Phe-NH2 (YVC[Nle]GH[dF]RWDRF-NH2; also: Re complex) [3-11] . Report value.
**Result** 95

**Query** Give % Inhibition at 1 μM at Melanocortin Receptor 1 for Tyr-Val-Nle-Cys-His-D-Phe-Arg-Trp-Asp-Arg-Phe-NH2 (YV[Nle]CH[dF]RWDRF-NH2; not fully specified (bridges); printed as Tyr-Val-Nle-Cys-His-D-Phe-Arg-Trp-Asp-Arg-Phe-NH2; numbers in words are those of the source; also: oxorhenium(V) N3S1 chelate complex (Re=O)) [5-8] tested on MC1-R (Mus musculus, UniProt Q01727).
**Result** 95

New cases:
**Query** State recorded % Inhibition at 1 μM at Melanocortin Receptor 1 with MC1-R (Mus musculus, UniProt Q01727), entry Tyr-Val-Cys-Nle-Gly-His-Phe-Arg-Trp-Asp-Arg-Phe-NH2 (YVC[Nle]GHFRWDRF-NH2; not fully specified (bridges); printed as Tyr-Val-Cys-Nle-Gly-His-Phe-Arg-Trp-Asp-Arg-Phe-NH2; numbers in words are those of the source; also: oxorhenium(V) N3S1 chelate (Re=O) with Cys) [4-10] , no comment.
**Result** 28
